# protocolSummary: yeast display, Sf9 membrane polyspecificity reagent, FACS + sequencing; frameworks hold sequencing errors

residueSequence	polyreactivity (PSR sort gate)
QVQLVESGGGLVQAGGSLRLSCAASGRIFGRYAMGGSRQAPGKERELVAAITSSGGNTYYADSVKGRFTISRDNAKNTVYLQMNSLKPEDTAVYYCNALSARSRLQSDYWGQGTQVTVSS	high polyreactivity
QVQLVESGGCIVQAGGSLRLSCAATGRTFYIYAMGWYRQPPGKESELVATITRGGSTNYADSVKGRFTSSRDNAKNTVYLQMNSLKPVDTAVYYCAAESYFTNWRNRYDYWGQGSQVTVSS	high polyreactivity
QVQLVESGGGLVQAGGSLRLSCAASGFTFRVYAMGWYRQAPGKERELVAAITSGSSTTYADSVKGRFTISRDNAKNTVYLQLNSLKPEDTAVYYCNARRRGRVTGSYGYWGQGTQVTVSS	high polyreactivity
